Tested on: EPHB1
Details: concentration: 1 μM, replicates: in singlicate; n = 1;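 also: KINOMEscan kinase panel screen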

| COMPOUND | ASSAY SYSTEM | %Inh / % |
| --- | --- | --- |
| N#Cc1c(N2CCOCC2)sc(-c2ccn[nH]2)c1-c1ccc(Cl)cc1 | EPHB1 | 14 |
| Cc1c2ccc(N(C)c3ccnc(Nc4cccc(S(N)(=O)=O)c4)n3)cc2nn1Cc1ccccc1.Cl.Cl | EPHB1 | 12 |
| NS(=O)(=O)c1cccc(-c2ccc3ncc(N4CCOCC4)nc3c2)c1 | EPHB1 | 5 |
| COc1cc2c(cc1OC[C@@H](O)CO)ncc1c3ccc(C#N)cc3[nH]c21 | EPHB1 | 0 |
| CCn1cnc2c(N)ncnc21 | EPHB1 | 7 |
| N#Cc1ccc(-c2cc(-c3c[nH]nc3-c3ccccn3)ccn2)cc1 | EPHB1 | 7 |
| COCCNC(=O)c1ccc(-c2cc(C(=O)NC3CC3)cc(F)c2C)cc1 | EPHB1 | 16 |
| Cc1ccc(C(=O)NCC(N)=O)cc1-n1c(C)cc(OCc2ccc(F)cc2F)c(Br)c1=O | EPHB1 | 20 |
| Cc1c(Cn2c(C)nn3c(=O)cc(N4CCOC(C)C4)nc23)cccc1C(F)(F)F (stereo not drawn) | EPHB1 | 10 |
| O=C(NCCNc1ccnc(Nc2ccc(F)cc2)n1)Nc1ccccc1F | EPHB1 | 38 |
| CN(C(=O)c1ccc(-c2cc(-c3c[nH]nc3-c3ccccn3)ccn2)cc1)C1CCOCC1 | EPHB1 | 0 |
| COc1cc(Nc2nccc(N3CCC(NC(=O)c4cccc(NC(C)=O)c4)C3)n2)cc(OC)c1OC (stereo not drawn) | EPHB1 | 15 |
| CC(C)Oc1ccc2c(-c3ccnc(Nc4ccc(N5CCN(C)CC5)cc4)n3)cnn2n1 | EPHB1 | 9 |
| Cc1cccc(-c2nc(-c3ccc(S(C)(=O)=O)cc3)sc2-c2ccncc2)c1 | EPHB1 | 14 |
| NS(=O)(=O)c1cccc(-c2ccc3nccc(-c4cccc(S(N)(=O)=O)c4)c3c2)c1 | EPHB1 | 0 |
| NS(=O)(=O)CCc1cccc(Nc2nccc(-c3c(-c4cccc(NC(=O)c5c(F)cccc5F)c4)nn4ccccc34)n2)c1 | EPHB1 | 26 |
| c1ccc(-c2n[nH]cc2-c2ccnc3ccccc23)nc1 | EPHB1 | 32 |
| Cc1cccc(Cn2ccn3c(=O)cc(N4CCOCC4)nc23)c1 | EPHB1 | 23 |

====

# %Inh listing for each entry below
System: HIPK4
Details: concentration: 1 μM, replicates: in singlicate; n = 1

| SMILES ENTRY | %Inh / % |
| --- | --- |
| Cc1nnc(-c2ccc(C)c(-c3ccc(C(=O)Nc4ccc(NS(C)(=O)=O)cc4)cc3)c2)o1 | 0 |
| COc1cc2c(cc1OC[C@@H](O)CO)ncc1c3ccc(C#N)cc3[nH]c21 | 47 |
| CC(C)Oc1ccc2c(-c3ccnc(Nc4ccc(N5CCN(C)CC5)cc4)n3)cnn2n1 | 83 |
| N#Cc1c(N2CCOCC2)sc(-c2ccn[nH]2)c1-c1ccc(Cl)cc1 | 0 |
| NS(=O)(=O)CCc1cccc(Nc2nccc(-c3c(-c4cccc(NC(=O)c5c(F)cccc5F)c4)nn4ccccc34)n2)c1 | 25 |

====

Test system: CSNK1D
Conditions: concentration: 1 μM, replicates: in singlicate; n = 1

| COMPOUND | %Inh, % |
| --- | --- |
| COc1cc2ncn(-c3cc(OCc4sccc4Cl)c(C(N)=O)s3)c2cc1OC [GSK448459] | 16 |
| Cc1ccc(C(=O)NCC(N)=O)cc1-n1c(C)cc(OCc2ccc(F)cc2F)c(Br)c1=O | 19 |
| CCn1cnc2c(N)ncnc21 [GW345098] | 21 |
| O=C(Nc1n[nH]c2cc(-c3cccc(F)c3)ccc12)C1CC1 [SB-735464] | 0 |
| COc1cc2c(cc1OC[C@@H](O)CO)ncc1c3ccc(C#N)cc3[nH]c21 | 0 |

Sourced from paper PMC5540273
